Test system: MV4-11
measurement.description: cell viability (% survival relative to DMSO control, bortezomib = 0%); higher = less cytotoxic
study.conditions: 100 nM; 72 h
Record form. Attribute: cell viability. Fill in for each entry.
Numbers only; they are read as %.

Data request: Query (compound): CC(C)(O)CNc1nc(Nc2ccnc(C(F)(F)F)c2)nc(-c2cccc(C(F)(F)F)n2)n1 [Enasidenib] ; field requested: cell viability
Data returned: 112

Data request: Query (compound): O=c1[nH]c(=O)n([C@H]2C[C@H](O)[C@@H](CO)O2)cc1I [Idoxuridine] ; field requested: cell viability
Data returned: 92.6

Data request: Query (compound): CC(C)(F)C[C@H](N[C@@H](c1ccc(-c2ccc(S(C)(=O)=O)cc2)cc1)C(F)(F)F)C(=O)NC1(C#N)CC1 [Odanacatib] ; field requested: cell viability
Data returned: 111

Data request: Query (compound): Cc1nnc(-c2ccc(N3CCC(Oc4ccccc4C(F)(F)F)CC3)nn2)s1 [MF-438] ; field requested: cell viability
Data returned: 91.2

Data request: Query (compound): CCCCC/C=C\C/C=C\C/C=C\C/C=C\CCCC(=O)C(F)(F)F [Arachidonyl trifluoromethyl ketone] ; field requested: cell viability
Data returned: 101

Data request: Query (compound): O=C(Oc1cccc(F)c1OC(=O)c1cccc(O)c1)c1cccc(O)c1 [WZB117] ; field requested: cell viability
Data returned: 97

Data request: Query (compound): CC1Cc2ccccc2N1NC(=O)c1ccc(Cl)c(S(N)(=O)=O)c1 (configuration not stated) [Indapamide] ; field requested: cell viability
Data returned: 102

Data request: Query (compound): CC(C)(CS(=O)(=O)[O-])NC(=O)CC[N+](C)(C)CCO ; field requested: cell viability
Data returned: 99.8

Data request: Query (compound): O=C(CCl)N(CCCNC(=O)C(F)(F)F)c1ccc([N+](=O)[O-])cc1 [ML175] ; field requested: cell viability
Data returned: 95.6

Data request: Query (compound): C[C@H]1O[C@H](O[C@H]2[C@H](O)[C@@H](O)[C@@H](O[C@H]3[C@H](O)[C@@H](O)C(O)O[C@@H]3CO)O[C@@H]2CO)[C@H](O)[C@@H](O)[C@@H]1N[C@H]1C=C(CO)[C@@H](O)[C@H](O)[C@H]1O (mixture of isomers) [Acarbose] ; field requested: cell viability
Data returned: 111

Data request: Query (compound): CN(C)C(=O)n1nnnc1Cc1ccc(-c2ccccc2)cc1 ; field requested: cell viability
Data returned: 89.2

Data request: Query (compound): NCc1ccc(S(N)(=O)=O)cc1 [4-Homosulfanilamide] ; field requested: cell viability
Data returned: 90.2

###

Record form. Attribute: cell viability. Fill in for each entry.
Test system: KG-1
measurement.description: cell viability (% survival relative to DMSO control, bortezomib = 0%); higher = less cytotoxic
study.conditions: 1 nM; 72 h
Numbers only; they are read as %.

Data request: Query (compound): Cc1[nH]n(-c2ccccc2)c(=O)c1C1(C(F)(F)F)C(=O)N(c2ccccc2)C2=C1C(=O)CC(C)(C)C2 (stereo not given) ; field requested: cell viability
Data returned: 96.7

Data request: Query (compound): O=C(/C=C/c1cccnc1)NCCCCC1CCN(C(=O)c2ccccc2)CC1 ; field requested: cell viability
Data returned: 88

Data request: Query (compound): O=C(Oc1cccc(F)c1OC(=O)c1cccc(O)c1)c1cccc(O)c1 ; field requested: cell viability
Data returned: 113

Data request: Query (compound): CCCCCCCCCCCCC/C=C/[C@@H](O)[C@H](CO)N(C)C ; field requested: cell viability
Data returned: 92.2

Data request: Query (compound): O=C(Cc1cccc(OC(F)(F)F)c1)Nc1ccc(CCCCc2nnc(NC(=O)Cc3ccccn3)s2)nn1 ; field requested: cell viability
Data returned: 98.4

Data request: Query (compound): Cc1nc(-c2ccc(OCC(C)C)c(C#N)c2)sc1C(=O)O ; field requested: cell viability
Data returned: 102

Data request: Query (compound): Cl.NC1=CCCN1Cc1nc(O)nc(O)c1Cl ; field requested: cell viability
Data returned: 98.2

Data request: Query (compound): COc1cc(C2Oc3cc(C4Oc5cc(O)cc(O)c5C(=O)C4O)ccc3OC2CO)ccc1O (stereo not given) ; field requested: cell viability
Data returned: 91.3

Data request: Query (compound): OCCN1C[C@H](O)[C@@H](O)[C@H](O)[C@H]1CO ; field requested: cell viability
Data returned: 101

Data request: Query (compound): CN(C)C(=N)NC(=N)N ; field requested: cell viability
Data returned: 97.4
